These entries and their values trace back to patent US6753424B1.

# Tested on: GR-GFP chimera
# experiment: Nuclear Transfer Induction assay (NTI), diurethane ligands, CV-1 cells
# Assay type: cell-based
# protocol_conditions: ligand 5.10-7M, 4 hr
# Description: Conditions: CV-1 cells are transiently transfected with DOTAP (Boehringer-Mannheim) with an expression vector encoding a GR-GFP chimera (see 8.1). After 36 hours expression, ligand is added for 4 hr and cells are fixed and counted as given in 8.1.
property_name: C << N, percentage of cells (%)
Give the number; % is assumed, so skip it.

## Task C << N, percentage of cells for Cc1oc2c(C)c3oc(=O)cc(C)c3cc2c1CNC(=O)OCCCCCCNC(=O)OCC(=O)[C@@]1(O)[C@H](C)CC2C3CCC4=CC(=O)C=CC4(C)[C@@]3(F)C(O)CC21C (stereo partly shown) [DEX-C6-Pso] ?
## Result 94

## Task // query C << N, percentage of cells value for entry CC1CC2C3CCC4=CC(=O)C=CC4(C)C3(F)C(O)CC2(C)C1(O)C(=O)COC(=O)NCCOC(=O)NCCCNCCCCNCCCN (stereo not shown) [DEX-C4-Sn]
## Result 0.6

## Task Record request: C << N, percentage of cells value, item C[C@@H]1C[C@H]2[C@@H]3CCC4=CC(=O)C=C[C@]4(C)[C@@]3(F)[C@@H](O)C[C@]2(C)[C@@]1(O)C(=O)CO [DEX, Dexamethasone, reference compound]
## Result 99

## Task Entry Cc1oc2c(C)c3oc(=O)cc(C)c3cc2c1CNC(=O)OCCCCCCCCCCCNC(=O)OCC(=O)[C@@]1(O)[C@H](C)CC2C3CCC4=CC(=O)C=CC4(C)[C@@]3(F)C(O)CC21C (stereo partly shown) [DEX-C11-Pso] : reported C << N, percentage of cells = ?
## Result 0

----------
# Test system: GR-GFP chimera
# experiment: Nuclear Transfer Induction assay (NTI), diurethane ligands, CV-1 cells
# Format: cell-based
# protocol_conditions: ligand 5.10-9M, 4 hr
property_name: C << N, percentage of cells (%)
The reply should contain only the number, in %.

Worked cases, answers included:
compound	property_name	recorded_measurement
Cc1oc2c(C)c3oc(=O)cc(C)c3cc2c1CNC(=O)OCCCCCCNC(=O)OCC(=O)[C@@]1(O)[C@H](C)CC2C3CCC4=CC(=O)C=CC4(C)[C@@]3(F)C(O)CC21C (stereo partly shown)	C << N, percentage of cells	22.6
CC1CC2C3CCC4=CC(=O)C=CC4(C)C3(F)C(O)CC2(C)C1(O)C(=O)COC(=O)NCCOC(=O)NCCCNCCCCNCCCN (stereo not shown)	C << N, percentage of cells	0
Cc1oc2c(C)c3oc(=O)cc(C)c3cc2c1CNC(=O)OCCCCCCCCCCCNC(=O)OCC(=O)[C@@]1(O)[C@H](C)CC2C3CCC4=CC(=O)C=CC4(C)[C@@]3(F)C(O)CC21C (stereo partly shown)	C << N, percentage of cells	0

## Task Consider the compound C[C@@H]1C[C@H]2[C@@H]3CCC4=CC(=O)C=C[C@]4(C)[C@@]3(F)[C@@H](O)C[C@]2(C)[C@@]1(O)C(=O)CO [DEX, Dexamethasone, reference compound] and give its measured C << N, percentage of cells.
## Result 57.5

----------
Recorded C << N, percentage of cells values for a group of compounds are listed next.
# Test system: GR-GFP chimera
# experiment: Nuclear Transfer Induction assay (NTI), diurethane ligands, CV-1 cells
# Type: cell-based
# protocol_conditions: ligand 5.10-8M, 4 hr
Could you give the number and then its unit, please?

compound	recorded_measurement
C[C@@H]1C[C@H]2[C@@H]3CCC4=CC(=O)C=C[C@]4(C)[C@@]3(F)[C@@H](O)C[C@]2(C)[C@@]1(O)C(=O)CO [DEX, Dexamethasone, reference compound]	95%

## Task Which C << N, percentage of cells value is on record for Cc1oc2c(C)c3oc(=O)cc(C)c3cc2c1CNC(=O)OCCCCCCNC(=O)OCC(=O)[C@@]1(O)[C@H](C)CC2C3CCC4=CC(=O)C=CC4(C)[C@@]3(F)C(O)CC21C (stereo partly shown) ?
## Result 60.8%

## Task # query: C << N, percentage of cells of entry Cc1oc2c(C)c3oc(=O)cc(C)c3cc2c1CNC(=O)OCCCCCCCCCCCNC(=O)OCC(=O)[C@@]1(O)[C@H](C)CC2C3CCC4=CC(=O)C=CC4(C)[C@@]3(F)C(O)CC21C (stereo partly shown)
## Result 0%

## Task Entry under review: CC1CC2C3CCC4=CC(=O)C=CC4(C)C3(F)C(O)CC2(C)C1(O)C(=O)COC(=O)NCCOC(=O)NCCCNCCCCNCCCN (stereo not shown) . Reported C << N, percentage of cells?
## Result 0%

----------
# System: GR-GFP chimera
# experiment: Nuclear Transfer Induction assay (NTI), monourethane ligands, HeLa cells
# Type: cell-based
# protocol_conditions: ligand 1.10-6M, 1 hr
property_name: C = N, percentage of cells (%)
Answer with a number only, understood to be in %.

Take a look at these entries with their results.
compound	recorded_measurement
COC(=O)CCCCCCCCCCNC(=O)OCC(=O)[C@@]1(O)[C@H](C)CC2C3CCC4=CC(=O)C=CC4(C)[C@@]3(F)C(O)CC21C (stereo partly drawn) [DEX-C11-COOCH3]	5
CC12CCC(=O)C=C1CCC1C2C(O)CC2(C)C1CC[C@]2(O)C(=O)COC(=O)NCCC(=O)O (stereo partly drawn) [CL-C3-COOH]	85
Cc1oc2c(C)c3oc(=O)cc(C)c3cc2c1CNC(=O)CCNC(=O)OCC(=O)[C@@]1(O)CCC2C3CCC4=CC(=O)CCC4(C)C3C(O)CC21C (stereo partly drawn) [CL-C4-Pso]	29
COC(=O)CCCCCCCCCCNC(=O)OCC(=O)[C@@]1(O)CCC2C3CCC4=CC(=O)CCC4(C)C3C(O)CC21C (stereo partly drawn) [CL-C11-COOCH3]	24
C[C@@H]1C[C@H]2[C@@H]3CCC4=CC(=O)C=C[C@]4(C)[C@@]3(F)[C@@H](O)C[C@]2(C)[C@@]1(O)C(=O)CO [DEX, Dexamethasone, reference compound]	0

Attention now turns to another entry.
## Task Fill in the blank: the reported C = N, percentage of cells of CC[n+]1c(-c2ccccc2)c2cc(NC(=O)CCNC(=O)OCC(=O)[C@@]3(O)CCC4C5CCC6=CC(=O)CCC6(C)C5C(O)CC43C)ccc2c2ccc(N)cc21 (stereo partly drawn) [CL-C4-EtBr] is ____.
## Result 55
